The entries below are paired with their reported TGI.
# Tested on: IGROV1 ovarian
# assay-comment: NCI tumour cell line growth inhibition, 48 h

molecule: O=C(Nc1nc2ncn(CCI)c2c(=O)[nH]1)c1ccccc1
system-name: IGROV1 ovarian
value-observed: > 100 µM
//
molecule: O=S(=O)(c1ccccc1)n1c2cc3cccnc3nc2c2cccnc21
system-name: IGROV1 ovarian
value-observed: > 100 µM
//
molecule: Cc1cc(=O)[nH]c(NN2C(Cl)C(=O)C2c2cccc(O)c2)n1 (stereo not given)
system-name: IGROV1 ovarian
value-observed: > 100 µM
//
molecule: CNC(=S)N(C)C(=S)Nn1c(=O)c(C)nn(C)c1=S
system-name: IGROV1 ovarian
value-observed: > 100 µM

For the molecule NC(CCCCP(=O)(O)O)C(=O)O (stereo not given) , what TGI is on record?
> 100 µM

If you can, please state the reported TGI value of CC(C)(Cc1ccccc1)NC1=NCCO1 .
> 100 µM

Endpoint output: TGI of COc1cc(C2c3cc4c(cc3OC(N3CCCC3)C2C)OCO4)cc(OC)c1O (stereo not given) . Value?
> 100 µM

// returns reported TGI for input O=C(/C=C/c1ccc(O)cc1)OC[C@@H](O)COC1OC(CO)C(O)C(O)C1O (stereo not given in full)
> 100 µM

Name the recorded TGI for CC1CC(N)=Nc2ccccc2N1 (stereo not given) .
> 100 µM

Recorded TGI for CCOP(=O)(Cc1ccc(CP(=O)(OCC)OCC)n1C)OCC , please?
> 100 µM

* * *

# Test system: COLO 205 colon
# assay-comment: NCI tumour cell line growth inhibition, 48 h
measurement-name: TGI

For orientation, consider the following solved cases.
compound: COC(C)(C)C1=CCC(C)CC1 (stereo not drawn)
TGI: > 100 µM
--
compound: Cc1ccc(S(=O)(=O)NCC2CCCCC2=O)cc1 (stereo not drawn)
TGI: > 100 µM

Entry under review: CS(=O)(=O)N/N=C/CN1C(=O)c2ccccc2C1=O . Reported TGI?
> 100 µM

* * *

# System: T-47D breast
# assay-comment: NCI tumour cell line growth inhibition, 48 h
measurement-name: TGI

compound: Cn1cc(C2=C(c3ccc4ccccc4c3)C(=O)NC2=O)c2ccccc21
TGI: > 25 µM
//
compound: O=S(=O)([O-])c1ccc2c(c1)-c1nc-2nc2[n-]c(nc3nc(nc4[n-]c(n1)c1ccc(S(=O)(=O)[O-])cc41)-c1cc(S(=O)(=O)[O-])ccc1-3)c1ccc(S(=O)(=O)[O-])cc21.[Cu+2].[Na+]
TGI: > 100 µM
//
compound: CC1(CCCO)CCCCCC(C)(CCCO)C1=O (centres undefined)
TGI: > 100 µM

// map COc1nc(C(=O)NNC(=O)c2nc(OC)c3ccccc3c2-c2ccccc2)c(-c2ccccc2)c2ccccc12 to recorded TGI (system: T-47D breast)
> 100 µM

Give TGI (T-47D breast) of the following compound: COC(=O)C(C)(NC(=O)C(CC(=O)OC(C)(C)C)NC(=O)OC(C)(C)C)c1ccccc1 (centres undefined)
> 100 µM

Hello, I am looking for reported TGI with T-47D breast for O=C(NCCCCCCNC(=O)c1cccc2ccccc12)Nc1cccc2ccccc12 . Could you help?
> 100 µM

Enter reported TGI observed with T-47D breast for COc1ccc(C(=O)c2cc(OC)c(C)c(OC)c2)cc1OC(=O)CCl
> 79 µM

Query the reported TGI for T-47D breast; item: Cc1ccc(/C=N/n2c(=O)[nH]c3ccccc3c2=O)cc1
> 100 µM

Provide the documented TGI with T-47D breast as the system for CC(C)(C)C(=O)OCC1CCC[N+]2(C)CCCCC12 (centres undefined)
> 100 µM

Under T-47D breast: TGI value of CCn1c(-c2cc(OC)cc(OC)c2)nc2c1C(=O)c1ccccc1C2=O ?
> 100 µM

Enter reported TGI observed with T-47D breast for CCOC(CCNCC(OCC)OCC)OCC
> 10 µM

# value lookup — system T-47D breast, readout TGI, item c1ccc(N=C2SC(=NC3CCCCC3)N(C3CCCCC3)C2=Nc2ccccc2)cc1
> 100 µM

Recorded TGI for CCSc1n/c(=C\c2ccco2)c2nnnn12 with T-47D breast, please?
> 100 µM

Find the measured TGI: item Clc1coc2nc3ccccc3c(Nc3ccc4c(c3)OCO4)c12 , target or system T-47D breast.
> 100 µM

Observed TGI on T-47D breast for CC(=O)c1c2c(cc3c1CC1(Cc4ccccc4C1=O)C3)CCC2 (centres undefined) , please.
49.3 µM

Hi! What's the reported TGI for C=C(C)[C@@]12OC3(/C=C/C=C/CCCCC)O[C@@H]1[C@@H]1[C@@H]4O[C@]4(CO)[C@@H](O)[C@]4(O)C(=O)C(C)=C[C@H]4[C@@]1(O3)[C@H](C)[C@H]2OC(=O)c1ccccc1 on T-47D breast?
7.25 µM

// map C/C1=C\CC[C@@]2(C)O[C@@H]2[C@H]2OC(=O)[C@@H](CN(C)C)[C@@H]2CC1 to recorded TGI (system: T-47D breast)
> 100 µM

Give the reported TGI for Cc1ccc(S(=O)(=O)N/N=C/C(=C/c2ccc(Cl)cc2)CC(/C=N/NS(=O)(=O)c2ccc(C)cc2)=C\c2ccc(Cl)cc2)cc1 (system: T-47D breast).
19.2 µM

Quick check: TGI on T-47D breast, item Oc1ccc2ccccc2c1/C=C/c1ccc2c(Br)cc(Br)c(O)c2n1 ?
35.4 µM

* * *

# Test system: LOX IMVI melanoma
# assay-comment: NCI tumour cell line growth inhibition, 48 h
measurement-name: TGI

Here's what some known entries look like.
compound: CSc1nc2c(nc(C)c(=O)n2C2OCC(OC(C)=O)C(OC(C)=O)C2OC(C)=O)c(=O)[nH]1 (configuration not stated)
TGI: > 100 µM
//
compound: C=C1C[C@@H]2O[C@H]3[C@H]4[C@@H](C[C@@H](C)[C@@H](OC(C)=O)[C@H]42)[C@@H](C)CO[C@@]3(C)[C@H](OC(C)=O)C[C@H]1O
TGI: 38.7 µM
//
compound: CCc1nc(N)nc(N)c1-c1ccc2nn(-c3ccccc3)[n+]([O-])c2c1
TGI: 17.7 µM

What value of TGI has been reported for the following compound? C=C(CCCCC)CN1CCCC1[C@@](C)(O)CC(=O)OCC (some centres not stated)
> 100 µM

Please give the measured TGI for this compound: Cn1c(=O)c2c(nc(Nc3cc(=O)[nH]c(=O)[nH]3)n2Cc2ccccc2)n(C)c1=O
> 100 µM

Return reported TGI; argument: O=C1OC[C@@H]2Cc3cc4c(cc3[C@H](c3ccc5c(c3)OCO5)[C@@H]12)OCO4
> 25 µM

Find the recorded TGI belonging to O=C1c2ccccc2C(=O)C1(Cl)C1(S(=O)(=O)O)c2ccccc2-c2ccccc21 and report it.
> 100 µM

// lookup TGI for CCOC(CCNCC(OCC)OCC)OCC
> 10 µM

TGI for Clc1coc2nc3ccccc3c(Nc3ccc4c(c3)OCO4)c12 ?
13.6 µM

* * *

# Test system: HOP-92 NSCLC
# assay-comment: NCI tumour cell line growth inhibition, 48 h
Some compounds, each annotated with its measured TGI.

Observe how each entry below is paired with its result.
compound: O=[N+]([O-])c1ccc(Cl)c(C=NC23CC4CC(CC(C4)C2)C3)c1
TGI: > 10 µM
//
compound: CC(=O)OC1Oc2ccccc2-c2oc(=O)c(-c3cc(=O)oc4cc(O)ccc34)cc21 (centres undefined)
TGI: 40.9 µM
//
compound: CCOC(=O)C1=CC(C)(C(=O)OCC)Nc2c(nc(OC)n(C)c2=O)N1 (centres undefined)
TGI: > 10 µM

Please examine the following record next.
State the recorded TGI for this entry: CCCCCCCCCC/C=C/CC(=O)SCCNC(=O)CCNC(=O)[C@@H](O)C(C)(C)COP(=O)(O)OP(=O)(O)OCC1OC(n2cnc3c(N)ncnc32)C(O)C1OP(=O)(O)O (some centres undefined)
> 10 µM

* * *

Entries and their TGI values follow.
# System: DLD-1 colon
# assay-comment: NCI tumour cell line growth inhibition, 48 h

compound: O=C(c1ccc(O)cc1)C1c2c3c(cc(O)c2C(c2ccc(O)cc2)C1c1cc(O)cc(O)c1)OC(c1ccc(O)cc1)C3c1cc2c(cc1O)OC(c1ccc(O)cc1)C2c1cc(O)cc(O)c1 (stereo not drawn)
system-name: DLD-1 colon
TGI: > 12.5 µM

compound: O=C(O)CNc1cc(-c2ccccc2)nc(NCC(=O)O)n1
system-name: DLD-1 colon
TGI: > 100 µM

Continue with the compound presented below.
Give DLD-1 colon TGI for CC(=O)Nc1ccc(C(=O)NN2C(=O)C(Cl)C2c2ccccc2)cc1 (stereo not drawn)
> 100 µM

* * *

# Tested on: SF-295 CNS
# assay-comment: NCI tumour cell line growth inhibition, 48 h
measurement-name: TGI

Known results for compounds:
compound: COc1ccc(CC2c3cc(Oc4cc(CC5c6cc(OC)c(OC)cc6CCN5C)ccc4O)c(OC)cc3CCN2C)cc1 (centres undefined)
system-name: SF-295 CNS
TGI: 15.4 µM
--
compound: CC(C)(C)OC(=O)NCC(=O)OCc1ccccc1
system-name: SF-295 CNS
TGI: > 100 µM
--
compound: Oc1[nH]c2ccccc2c1N=Nc1ccccc1Cl
system-name: SF-295 CNS
TGI: > 100 µM
--
compound: O=[N+]([O-])c1cc2oc(COc3ccccc3)nc2cc1Cl
system-name: SF-295 CNS
TGI: 38.8 µM
--
compound: CC1(CCCO)CCCCCC(C)(CCCO)C1=O (centres undefined)
system-name: SF-295 CNS
TGI: > 100 µM
--
compound: c1ccc(N=C2SC(=NC3CCCCC3)N(C3CCCCC3)C2=Nc2ccccc2)cc1
system-name: SF-295 CNS
TGI: > 100 µM

What value of TGI has been reported for the following compound? COC(=O)C(C(=O)C(=O)Nc1cccc(OC)c1)c1cnc2ccccc2n1 (centres undefined)
> 100 µM

Requested field: TGI. Item: CN1C(=O)N/C(=C\c2ccc(S(=O)(=O)NN)cc2)C1=O
> 100 µM

Item CNCCNc1c2c(c(NCCNC)c3c(CN(C)C)c[nH]c13)C(=O)c1ccccc1C2=O has what recorded TGI?
9.16 µM

What does the record list as TGI for COC(=O)c1cc2c3ccccc3n(C(C)=O)c2cn1 ?
> 100 µM

I am curious: what TGI value has been reported for Ic1ccc(Nc2nc3nonc3nc2Nc2ccc(I)cc2)cc1 ?
0.893 µM

For the compound O=C(CC(=O)Nc1cccc(C(=O)O)c1)Nc1cccc(C(=O)O)c1 , what TGI is on record?
> 100 µM

Return reported TGI; argument: Cc1ccccc1N1C(=O)/C(=C/c2ccc(N(CCC#N)CCC#N)cc2)N=C1c1cc([N+](=O)[O-])ccc1Cl
> 100 µM

TGI lookup needed for O=C1c2ccccc2C(=O)C1(Cl)C1(S(=O)(=O)O)c2ccccc2-c2ccccc21 , thanks.
> 100 µM

# get_value(readout='TGI', item= CC(=O)NC1C(OCc2ccccc2)OC(CO)C(O)C1OC(C)C(=O)NC(C)C(=O)NC(CCC(=O)NCCCNc1c2ccccc2nc2cccc([N+](=O)[O-])c12)C(N)=O (centres undefined) )
35.2 µM

// TGI lookup, key: Cc1cc2nc3c(C#N)c(-c4ccccc4)cc(Nc4ccc(Cl)cc4)n3c2cc1C
> 100 µM

# credit: PubChem BioAssay (NCI)
